- Assay protocol: Half life in mouse
- Type: ADME, organism-based
- Protocol conditions: in vivo
Quantity kind: half-life
Please report the result as a number followed by the unit.

query: Look up half-life for this molecule: Cc1ncsc1C(=O)N(Cc1cc(=O)[nH]c2c(F)cccc12)c1cccc(Cl)c1
result: 12 min

* * *

- Tested system: Nitric oxide synthase 1 (Homo sapiens, UniProt P29475)
- Sequence (P29475 whole entry): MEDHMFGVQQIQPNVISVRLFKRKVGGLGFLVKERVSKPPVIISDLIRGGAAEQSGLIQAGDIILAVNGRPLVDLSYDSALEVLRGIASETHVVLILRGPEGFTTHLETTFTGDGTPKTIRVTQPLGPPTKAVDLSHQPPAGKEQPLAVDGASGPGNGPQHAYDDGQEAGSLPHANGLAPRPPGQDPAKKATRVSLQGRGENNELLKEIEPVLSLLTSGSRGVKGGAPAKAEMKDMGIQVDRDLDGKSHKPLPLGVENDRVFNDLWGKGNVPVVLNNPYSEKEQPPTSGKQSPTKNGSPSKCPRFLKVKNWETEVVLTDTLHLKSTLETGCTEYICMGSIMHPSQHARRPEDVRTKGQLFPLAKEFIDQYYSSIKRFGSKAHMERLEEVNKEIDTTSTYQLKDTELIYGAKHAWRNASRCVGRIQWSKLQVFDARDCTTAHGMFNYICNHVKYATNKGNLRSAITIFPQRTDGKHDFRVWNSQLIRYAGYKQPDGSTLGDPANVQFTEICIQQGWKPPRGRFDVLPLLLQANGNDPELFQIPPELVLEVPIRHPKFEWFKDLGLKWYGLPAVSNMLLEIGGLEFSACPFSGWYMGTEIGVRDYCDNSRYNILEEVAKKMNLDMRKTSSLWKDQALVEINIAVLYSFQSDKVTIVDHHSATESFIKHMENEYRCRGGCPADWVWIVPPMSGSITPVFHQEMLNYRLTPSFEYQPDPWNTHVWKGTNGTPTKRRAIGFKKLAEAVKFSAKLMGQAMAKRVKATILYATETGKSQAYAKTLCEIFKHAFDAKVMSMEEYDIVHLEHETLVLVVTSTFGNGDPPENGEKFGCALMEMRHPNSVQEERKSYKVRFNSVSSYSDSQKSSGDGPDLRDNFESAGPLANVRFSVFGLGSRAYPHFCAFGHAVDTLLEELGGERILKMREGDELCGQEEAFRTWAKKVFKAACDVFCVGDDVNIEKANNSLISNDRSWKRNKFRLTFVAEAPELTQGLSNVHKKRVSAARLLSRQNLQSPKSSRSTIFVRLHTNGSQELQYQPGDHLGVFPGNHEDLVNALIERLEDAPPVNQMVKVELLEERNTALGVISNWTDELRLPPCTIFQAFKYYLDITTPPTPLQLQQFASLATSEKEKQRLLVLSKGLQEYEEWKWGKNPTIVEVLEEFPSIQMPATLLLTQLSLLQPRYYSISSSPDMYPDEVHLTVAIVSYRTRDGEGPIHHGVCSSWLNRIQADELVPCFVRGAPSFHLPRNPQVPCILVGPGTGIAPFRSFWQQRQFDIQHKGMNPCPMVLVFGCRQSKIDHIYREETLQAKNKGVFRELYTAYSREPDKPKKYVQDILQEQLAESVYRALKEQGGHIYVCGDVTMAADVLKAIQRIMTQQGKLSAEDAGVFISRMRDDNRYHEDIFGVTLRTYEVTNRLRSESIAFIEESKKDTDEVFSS
- Assay protocol: Inhibition of human nNOS expressed in HEK293 cells assessed as inhibition ionomycin induced nitric oxide production at 10 uM incubated for 24 hrs measured after 18 hrs of ionomycin challenge using 2,3-diaminonaphthalene by fluorescence assay
- Type: cell-based
Quantity kind: inhibition

query: Look up inhibition for this compound: O=c1cc(Cn2c(CC3CCCC3)nc3ccccc32)c2ccc(F)c(F)c2[nH]1
result: < 50%
